Source: PubChem BioAssay AID1159580

Experiment: chemical genetic growth profiling, strain panel (AID 1159580);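 further: tested at 20 µM; growth read once vehicle control cultures reached saturation at 30 °C; 1 = growth at the plate median or of vehicle wells; lower values mean less growth of the strain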
Settings: S. cerevisiae deletion strains, growth OD, locus YGR135W, strain pre9, hits give low values
The campaign covered roughly 5,500 compounds. About 2,000 (36%) were called active. Roughly 18% stayed inconclusive and do not appear here. Some of the results follow.
Property label: normalized growth
Keep it simple and answer with nothing but the number.

CC(C)NCC(O)c1ccc2ccccc2c1 (stereo not given) : 0.983
Nc1ncn([C@@H]2O[C@H](CO)[C@@H](O)[C@H]2O)c(=O)n1 : 0.99
O=c1[nH]c(=O)n(C2C[C@@H](O)[C@@H](CO)O2)cc1F (stereo not given in full) : 1.01
CC(C)(C)NCC(O)c1ccccc1Cl (stereo not given) : 0.979
COC(=O)Oc1ccccc1C(=O)O : 1.01

Fill in the blank: the reported normalized growth of Nc1ncnc2c1ncn2C1O[C@H](COP(=O)(O)O)[C@@H](O)[C@H]1O (stereo not given in full) is ____.
0.776

Same read-out for O=C(O)c1cccnc1Nc1cccc(C(F)(F)F)c1 ?
0.95

Same read-out for CSCCC(NC=O)C(=O)NC(C)C(=O)O (stereo not given) ?
0.984

Same read-out for CO[C@H]1/C=C/O[C@@]2(C)Oc3c(C)c(O)c4c(O)c(c(/C=N/N5CCN(C)CC5)c(O)c4c3C2=O)NC(=O)/C(C)=C\C=C\C(C)[C@H](O)[C@@H](C)[C@@H](O)[C@@H](C)[C@@H](OC(C)=O)[C@@H]1C (stereo not given in full) ?
1.02

Same read-out for O=C(CCCCCCCCCCCCC1CCCC1)Nc1ccc(S(=O)(=O)c2ccc(NC(=O)CCCCCCCCCCCCC3CCCC3)cc2)cc1 ?
1.01

---

Test: chemical genetic growth profiling, strain panel (AID 1159580);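 further: tested at 20 µM; growth read once vehicle control cultures reached saturation at 30 °C; 1 = growth at the plate median or of vehicle wells; lower values mean less growth of the strain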
Details: S. cerevisiae deletion strains, growth OD, locus YNL128W, strain TEP1, hits give low values
The whole screen tested about 5,500 compounds, of which about 2,000 (36%) were called active. Another 18% or so got no clear call; they are omitted. This is one part of the list.
Reported normalized growth values for the following molecules.
Keep it simple and answer with nothing but the number.

O=C1C=CC2=C3c4cc(O)c(O)cc4C[C@@]3(O)COC2=C1 : 0.998
CCN(CC)CCOc1ccc2c(c1)C(=O)c1cc(OCCN(CC)CC)ccc1-2 : 0.987
CCN(CC)CCOc1ccc(/C(=C(\Cl)c2ccccc2)c2ccccc2)cc1 : 0.0656

Fill in the blank: the reported normalized growth of NC(=O)c1ccccc1N1CCCCC1 is ____.
0.996

Same read-out for NC(=S)N/N=C\c1ccc(F)c(Cl)c1 ?
0.944

Same read-out for COC(C)(C)CCC[C@H](C)C/C=C/C(C)=C/C(=O)OC(C)C ?
1.01

Same read-out for Cc1occc(=O)c1O ?
1.03

Same read-out for NC(=NS(=O)(=O)c1cc(C(F)(F)F)cc(C(F)(F)F)c1)c1cccs1 ?
1

Same read-out for COc1ccc(C(Cl)=C(c2ccc(OC)cc2)c2ccc(OC)cc2)cc1 ?
1.03

Same read-out for CC(=O)Nc1ccc(S(=O)(=O)Nc2ccc([N+](=O)[O-])cc2)cc1 ?
1.01

Same read-out for CC/C(=C(\c1ccccc1)c1ccc(OCCN(C)C)cc1)c1ccccc1 ?
0.0645

---

Assay: chemical genetic growth profiling, strain panel (AID 1159580);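 further: tested at 20 µM; growth read once vehicle control cultures reached saturation at 30 °C; 1 = growth at the plate median or of vehicle wells; lower values mean less growth of the strain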
Conditions: S. cerevisiae deletion strains, growth OD, locus YKL203C, strain TOR2, hits give low values
About 2,000 (36%) of roughly 5,500 compounds were called active. About 18% were inconclusive and are not listed. The list shows a part of the results.
Property label: normalized growth

Previously resolved entries follow.
O=C1CSC(c2cccnc2)N1c1ccc(Cl)cc1Cl (stereo not given) : 0.945 (inactive)
OC(CNCc1ccc(Cl)cc1)CO/N=C\C1=C(Cl)c2cc(Cl)ccc2OC1 (stereo not given) : 0.983 (inactive)
O=[N+]([O-])/C=C/c1ccsc1 : 0.102 (active)
NC(=Nc1ccc(F)cc1)SCc1c(Cl)cccc1Cl : 1.03 (inactive)
CC(C)c1ccc(N2C=Nc3ccc(C(C)C)cc3C2)cc1 : 1.02 (inactive)

Fill in the blank: the reported normalized growth of CCCc1c(C(=O)Sc2ccccn2)cnn1-c1ccc(Cl)cc1 is ____.
0.942 (inactive)

Same read-out for Fc1cccc(Cl)c1CSc1nncn1-c1ccc(OCc2ccccc2)cc1 ?
1.06 (inactive)
